Taken from ChEMBL document CHEMBL1154229.

Measured clearance, listed per entry for reference.
TEST: Clearance in rat at 1 mg/kg, iv and 2 mg/kg, po
Assay type: ADME, organism-based
DETAILS: in vivo
// units = mL/min/kg; emit number, no label

## Input Please supply the value of reported clearance for the item CN(C)CCC1(c2ccccc2)CCCN(C(=O)Nc2ccc(Cl)cc2)C1 (stereo not given)
## Output 59

----------
ASSAY_TARGET: L-type calcium channel
TEST: Inhibition of calcium channel diltiazem binding site
Measured pIC50, listed per entry for reference.
Give only the number. pIC50 is defined as minus log10 of concentration in molar units.

These recorded examples may help you get a feel for the data.
MOLECULE | pIC50
CNC(=O)CCC1(c2ccccc2)CCCN(C(=O)Nc2ccc(Cl)cc2)C1 (configuration not stated) | 5.40
CC1(c2ccccc2)CCCN(C(=O)NCc2ccc(-c3ccc4[nH]ccc4c3)cc2)C1 (configuration not stated) | 6.00
CC1(c2ccccc2)CCCN(C(=O)Nc2noc3ccccc23)C1 (configuration not stated) | 4.72

Now turn to the next molecule.
## Input Please supply the value of reported pIC50 for the item CC1(c2ccccc2)CCCN(C(=O)Nc2ccncc2)C1 (configuration not stated)
## Output 4.82
